Cited source for all entries: patent US20120207760A1

target: hemagglutinin (HA) of influenza A/Solomon Islands/3/06 H1N1 (Influenza A virus A/Solomon …); test: cell-based or functional assay
Quick reference for % Neutralization among some binders
quantity-name: % Neutralization (%)

binder: TCN-531 (5091_H13) (antibody, V domains shown) VH: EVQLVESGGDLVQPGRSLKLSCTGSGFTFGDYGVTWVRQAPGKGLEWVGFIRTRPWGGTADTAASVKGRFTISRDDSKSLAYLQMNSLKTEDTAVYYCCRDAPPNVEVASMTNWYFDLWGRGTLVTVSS VL: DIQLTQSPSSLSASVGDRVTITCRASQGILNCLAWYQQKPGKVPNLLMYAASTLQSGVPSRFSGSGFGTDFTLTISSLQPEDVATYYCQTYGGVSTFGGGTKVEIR
quantity-name: % Neutralization
readout-value: 65
//
binder: TCN-554 (5277_M05) (antibody, V domains shown) VH: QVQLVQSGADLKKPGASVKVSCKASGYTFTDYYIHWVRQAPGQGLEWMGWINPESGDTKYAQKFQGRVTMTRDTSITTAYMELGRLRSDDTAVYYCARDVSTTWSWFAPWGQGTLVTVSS VL: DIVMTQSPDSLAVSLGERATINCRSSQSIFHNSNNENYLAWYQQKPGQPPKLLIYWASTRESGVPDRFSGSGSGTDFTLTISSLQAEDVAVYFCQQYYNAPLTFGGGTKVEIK
quantity-name: % Neutralization
readout-value: 42
//
binder: TCN-530 (5248_H10a) (antibody, V domains shown) VH: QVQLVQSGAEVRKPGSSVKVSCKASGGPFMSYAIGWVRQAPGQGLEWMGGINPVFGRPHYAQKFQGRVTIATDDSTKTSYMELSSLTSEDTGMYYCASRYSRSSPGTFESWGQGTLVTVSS VL: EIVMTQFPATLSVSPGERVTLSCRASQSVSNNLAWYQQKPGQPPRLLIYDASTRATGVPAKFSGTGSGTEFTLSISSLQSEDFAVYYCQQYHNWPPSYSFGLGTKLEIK
quantity-name: % Neutralization
readout-value: 64
//
binder: TCN-536 (5095_N01) (antibody, V domains shown) VH: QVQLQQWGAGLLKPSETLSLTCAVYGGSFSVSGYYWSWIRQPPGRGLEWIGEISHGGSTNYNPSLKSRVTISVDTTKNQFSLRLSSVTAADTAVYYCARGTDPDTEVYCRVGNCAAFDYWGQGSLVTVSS VL: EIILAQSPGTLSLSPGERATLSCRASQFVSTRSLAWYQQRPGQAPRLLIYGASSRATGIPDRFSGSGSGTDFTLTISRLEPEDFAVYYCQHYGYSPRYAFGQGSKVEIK
quantity-name: % Neutralization
readout-value: 75
//
binder: TCN-555 (5246_L16) (antibody, V domains shown) VH: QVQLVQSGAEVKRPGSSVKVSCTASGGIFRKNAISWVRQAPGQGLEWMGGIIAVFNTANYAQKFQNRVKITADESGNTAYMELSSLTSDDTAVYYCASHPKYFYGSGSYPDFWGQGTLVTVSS VL: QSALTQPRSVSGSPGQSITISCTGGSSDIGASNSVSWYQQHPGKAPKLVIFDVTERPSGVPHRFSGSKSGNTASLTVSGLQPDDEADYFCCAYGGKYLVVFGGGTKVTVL
quantity-name: % Neutralization
readout-value: 48
//
binder: TCN-552 (5249_I23) (antibody, V domains shown) VH: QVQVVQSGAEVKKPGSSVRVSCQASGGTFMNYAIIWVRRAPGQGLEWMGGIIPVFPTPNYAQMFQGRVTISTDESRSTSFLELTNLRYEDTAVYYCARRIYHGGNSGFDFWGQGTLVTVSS VL: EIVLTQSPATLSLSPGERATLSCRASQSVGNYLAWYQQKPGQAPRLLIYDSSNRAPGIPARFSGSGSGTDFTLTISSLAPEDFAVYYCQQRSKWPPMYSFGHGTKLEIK
quantity-name: % Neutralization
readout-value: 57
//
binder: TCN-546 (5089_L08) (antibody, V domains shown) VH: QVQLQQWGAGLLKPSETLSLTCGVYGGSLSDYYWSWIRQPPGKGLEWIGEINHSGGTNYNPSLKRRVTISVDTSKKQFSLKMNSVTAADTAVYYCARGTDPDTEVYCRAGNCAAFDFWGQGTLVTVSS VL: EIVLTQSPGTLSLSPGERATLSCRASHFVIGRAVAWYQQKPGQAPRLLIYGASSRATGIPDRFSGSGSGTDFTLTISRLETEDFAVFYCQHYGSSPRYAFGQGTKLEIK
quantity-name: % Neutralization
readout-value: 0
//
binder: TCN-529 (5297_H01) (antibody, V domains shown) VH: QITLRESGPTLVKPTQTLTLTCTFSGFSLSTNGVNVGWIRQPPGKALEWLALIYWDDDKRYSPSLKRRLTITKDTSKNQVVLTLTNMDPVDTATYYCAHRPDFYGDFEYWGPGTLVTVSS VL: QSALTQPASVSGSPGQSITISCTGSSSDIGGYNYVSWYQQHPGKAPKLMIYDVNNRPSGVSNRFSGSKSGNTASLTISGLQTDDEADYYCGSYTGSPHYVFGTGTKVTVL
quantity-name: % Neutralization
readout-value: 0
//
binder: TCN-523 (5248_A17) (antibody, V domains shown) VH: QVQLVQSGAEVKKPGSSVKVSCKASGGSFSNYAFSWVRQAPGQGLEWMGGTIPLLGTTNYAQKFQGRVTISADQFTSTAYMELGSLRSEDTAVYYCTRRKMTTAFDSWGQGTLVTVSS VL: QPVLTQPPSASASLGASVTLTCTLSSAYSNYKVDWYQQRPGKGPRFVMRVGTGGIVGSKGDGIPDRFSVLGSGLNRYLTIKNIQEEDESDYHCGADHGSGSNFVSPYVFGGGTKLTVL
quantity-name: % Neutralization
readout-value: 69
//
binder: TCN-522 (3212_I12) (antibody, V domains shown) VH: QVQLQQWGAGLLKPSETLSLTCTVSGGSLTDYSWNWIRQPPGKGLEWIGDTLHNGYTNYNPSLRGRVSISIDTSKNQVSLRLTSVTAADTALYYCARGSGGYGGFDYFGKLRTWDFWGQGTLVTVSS VL: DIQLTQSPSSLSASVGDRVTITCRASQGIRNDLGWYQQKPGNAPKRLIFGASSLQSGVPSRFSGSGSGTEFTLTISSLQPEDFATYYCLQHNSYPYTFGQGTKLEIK
quantity-name: % Neutralization
readout-value: 33
